Each recorded value in this set is attributed to PubChem BioAssay (Tox21).

experiment.summary: A CellTox Green Cytotoxicity Assay to monitor cytotoxicity in HepG2 cells - 16 hour (AID 1224876); note: nearly all actives have a fitted effect of over 45% in size
particulars: CellTox Green fluorescence; series mostly up to 76.8 µM
Inconclusive results are not listed. The source made the active and inactive calls. Calls come from the whole dose curve; as a rule, active = well fitted activation curve with a large enough effect in the repeat runs; inconclusive = weak or mixed curves; inactive = flat fitted curve, though single readings scatter.
Mark one answer only. Choices: active, inactive

Would you mind telling me which call this test gave CCOC(=O)[C@H](O)[C@@H](O)C(=O)OCC ?
inactive

Same thing, different compound: CC(c1cc(C(C)(C)C)cc(C(C)(C)C)c1O)c1cc(C(C)(C)C)cc(C(C)(C)C)c1O
inactive

Again, but for CCN(CC)c1ccc(C=O)c(O)c1
inactive

O=C(Nc1ccccc1)c1cc(Cl)ccc1O , same question.
inactive

Now try CC(O)(c1ccc(Cl)cc1)c1ccc(Cl)cc1 .
active

Also check Cc1ccc(N=Nc2c(O)ccc3ccccc23)c(C)c1
inactive

Now consider CCOC(=O)C1=NN(c2ccc(Cl)cc2Cl)C(C)(C(=O)OCC)C1 (configuration not stated) .
inactive

Do the same for CC1=C(/C=C/C(C)=C/C=C/C(C)=C\C(=O)O)C(C)(C)CCC1 please
inactive

Would you kindly repeat that for CN1CCN(CCCN2c3ccccc3Sc3ccc(C(F)(F)F)cc32)CC1 ?
active

Moving on to COc1cc(OC)nc(NC(=O)NS(=O)(=O)Nc2ccccc2C(=O)N(C)C)n1
inactive

Same question, Nc1cc([N+](=O)[O-])cc(Cl)c1O this time
inactive

Follow-up entry: Cc1cc(F)ccc1-c1cc(N2CC[C@@H](O)[C@H]2CO)ncc1N(C)C(=O)C(C)(C)c1cc(C(F)(F)F)cc(C(F)(F)F)c1
active

Please give the result for CC1CCC(C(C)(C)O)CC1 (configuration not stated) too.
inactive

Entry CC(=O)CC(N)=O please
inactive

Follow-up item: NCc1cccc(C2CCN(C(=O)c3ccc(C#Cc4ccccc4F)o3)CC2)c1
active

Likewise for O=C1C=CC(=O)N1c1cccc(N2C(=O)C=CC2=O)c1 ?
active

Follow-up entry: O=C(c1ccccc1)c1ccc(Cl)cc1
inactive

Also, CN1CCN(CCCN2c3ccccc3Sc3ccc(Cl)cc32)CC1 please.
active

Request: CSc1nnc(C(C)(C)C)c(=O)[nH]1
inactive

Same question for Brc1cc(Br)cc(Br)c1 please.
inactive

Also check C=C(C)CCO
inactive

Also need CCNc1nc(NC(C)(C)C)nc(OC)n1 , thanks.
inactive

Now give it for O=C(CCCCCCCCc1cccnc1)N1CCC(C=C(c2ccccc2)c2ccccc2)CC1 too.
inactive

Now consider COc1cc(/C=C/C(=O)CC(=O)/C=C/c2ccc(O)c(OC)c2)ccc1O .
active

Further, for Cn1ccnc1 ?
inactive

O=[N+]([O-])c1ccc(CO)cc1 , same question.
inactive

Follow-up entry: O=C1c2ccccc2C(=O)c2c(Cl)cccc21
inactive

// query: C1=CCCC1
inactive

Nc1cc([N+](=O)[O-])ccc1Cl ?
inactive

Cool, now Cc1ccc2n[nH]nc2c1
inactive

Let us now turn to O=C(Nc1ccc([N+](=O)[O-])cc1)Nc1ccc([N+](=O)[O-])cc1 (tested in a mixture with another compound)
inactive

Quick one: O=C1OC(O)C(C(Cl)Cl)=C1Cl (configuration not stated)
inactive
